assay: wn = mass fraction of the nth substance listed; conditions: 318.15 K; 101 kPa; Liquid; Vibrating tube method; w1 = 0.1
resultType: mass density (kg/m3)

>>> reportedvalue("CN(C)CCCN(C)C [N,N,N',N'-tetramethyl-1,3-propanediamine] + O")
977
>>> reportedvalue("CN(C)CCN(C)C [N,N,N',N'-tetramethyl-1,2-diaminoethane] + O")
976.7
>>> reportedvalue("CNCCCN [N-methyl-1,3-diaminopropane] + O")
982.6
>>> reportedvalue("NCCNCCN [di(2-aminoethyl)amine] + O")
992.8

----------
assay: wn = mass fraction of the nth substance listed; settings: 323.15 K; 101 kPa; Liquid; Taylor dispersion method; w1 = 0.3
resultType: binary diffusion coefficient (m2/s)

>>> reportedvalue("NCCNCCN [di(2-aminoethyl)amine] + O")
"1.01e-09"
>>> reportedvalue("CN(C)CCN(C)C [N,N,N',N'-tetramethyl-1,2-diaminoethane] + O")
"6.29e-10"

1. CNCCCN [N-methyl-1,3-diaminopropane] + O
2. CN(C)CCCN(C)C [N,N,N',N'-tetramethyl-1,3-propanediamine] + O
Sort 1 and 2 by binary diffusion coefficient descending and give the first. Refer to your chosen item by its label in the answer.
1
(1: 1.03e-09 m2/s, 2: 5.14e-10 m2/s)
